Target: 血浆激肽释放酶(plasma kallikrein,PK) (human, UniProt P03952 20-638)
Sequence (P03952 20-638 limits assumed): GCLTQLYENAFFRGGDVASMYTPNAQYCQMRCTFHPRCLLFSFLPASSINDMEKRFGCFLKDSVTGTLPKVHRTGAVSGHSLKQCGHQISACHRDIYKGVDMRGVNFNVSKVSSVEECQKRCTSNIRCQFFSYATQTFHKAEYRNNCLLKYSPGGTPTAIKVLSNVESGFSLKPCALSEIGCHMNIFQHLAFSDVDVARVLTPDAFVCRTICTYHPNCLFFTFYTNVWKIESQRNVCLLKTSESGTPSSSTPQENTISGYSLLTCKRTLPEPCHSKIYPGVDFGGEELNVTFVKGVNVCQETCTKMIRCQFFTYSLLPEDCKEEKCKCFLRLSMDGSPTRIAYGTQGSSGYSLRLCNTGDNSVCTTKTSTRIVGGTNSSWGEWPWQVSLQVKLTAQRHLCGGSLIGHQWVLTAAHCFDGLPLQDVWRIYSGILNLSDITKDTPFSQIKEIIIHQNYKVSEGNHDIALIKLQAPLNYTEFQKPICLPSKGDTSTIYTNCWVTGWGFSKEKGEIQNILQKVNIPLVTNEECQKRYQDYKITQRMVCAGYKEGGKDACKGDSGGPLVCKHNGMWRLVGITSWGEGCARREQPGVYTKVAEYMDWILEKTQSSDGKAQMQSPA
Experiment: cell-based or functional assay
quantity-name: IC50(nM), PK activity in human plasma activated with Factor XIIa (H-Pro-Phe-Arg-AMC)

Use the examples below as a reference point.
INSERT INTO assay_data (binder, recorded_measurement) VALUES
  ('KH18 (antibody, human IgG4 S228P, kappa, V domains shown) VH: QVQLLESGAELVRPGSSVKISCKASGYAFTNYWMHWVKQRPGQGLEWIGAIYPGDSDTSYNQKFKGKATLTADESSSTAYMQLSSLRSEDSAVYSCARERAYYRYDEDFDYWGQGTTVTVSS VL: DIQMTQSPSSLSASVGDRVTITCSATSIINSNYFHWYQQKPGKAPKLLIYRTSNLASGVPSRFSGSGSGTDFTFTISSLQPEDIATYYCQQGSSLPRTFGGGTKLEIKR', '0.419 nM'),
  ('KH02 (antibody, human IgG4 S228P, kappa, V domains shown) VH: EVQLQQSGAELVKPGASVRLSCTASGFNIKDTYIFWVKQRPKQGLEWIGRIDPENDNTKYDPKIQGKATLTADTSSNTAYLQLSSLTSEDSAIYYCAKGGGLFAYWGQGTLVSVSA VL: DIQMTQSPSSLSTSLGGKVTITCEASHDINNYIAWYQHKPGKGPRLLIHYTSTLQSGIPSRFSGSGSGKDYSFSISNLEPEDIATYYCLQYDNLFTFGGGTKLEIKR', '0.52 nM');

Note: attention shifts to another entry.
IN: Given the binder KH21 (antibody, V domains shown) VH: EVQLQQSGAELVKPGASVKLSCTGSGFNIKDIYMFWVKQRPEQGLEWIGRIDPENGNIKYDPKFQGKATITAETSSNTVYLQLNSLTSEDTAVYYCSRGGGLFAYWGQGTLVTVSA VL: DIQMTQSPSSLSASLGGKVTITCKASQDINKYIAWYQHKPGKGPRLLIHYTSTLQPGIPSRFSGSGSGSDYSFSISTLEPEDIATYYCLQYDDLWTFGGGTKLEIK , what is its reported IC50(nM), PK activity in human plasma activated with Factor XIIa (H-Pro-Phe-Arg-AMC)?
OUT: 1.29 nM

Numbers sourced from patent CN114790245A.
